Overview of reported solubility kinetic across a group of molecules:
conditions: buffer; pH 7.4; 200.0 µM
readout kind: solubility kinetic (µg/mL)

molecule=CC(=O)c1ccc(NC(=S)NCCCN2CCOCC2)cc1 units_label=µg/mL result_qualifier=> assay_value=48.2
molecule=CCCOc1ccc(C(=O)Nc2ccc(CN3CCOCC3)cc2)cc1 units_label=µg/mL result_qualifier== assay_value=4.1
molecule="O/N=C(\\c1ccccc1)C(O)c1ccccc1 (centres undefined)" units_label=µg/mL result_qualifier=> assay_value=34.1
molecule=Cc1cc(N2CCCC2)ccc1C=C(C#N)C#N units_label=µg/mL result_qualifier== assay_value=0.5
molecule=COC(=O)c1cc(S(=O)(=O)N2CCCC2=O)c(Cl)cc1Cl units_label=µg/mL result_qualifier=> assay_value=52.8
molecule=COc1cc2nc(CN3CCN(S(=O)(=O)c4ccccc4C(F)(F)F)CC3)[nH]c(=O)c2cc1OC units_label=µg/mL result_qualifier== assay_value=12.4
molecule=COc1ccc(C(C)(C)C)cc1NC(=O)CCN1C(=O)NC(C)(C)C1=O units_label=µg/mL result_qualifier== assay_value=52.7
molecule=Cc1ccc2nc(-c3ccncc3)cc(C(=O)NCc3ccccc3F)c2c1 units_label=µg/mL result_qualifier== assay_value=2.5
molecule="COc1ccc(-c2csc(NC(=O)[C@H](C)N3C(=O)C4CC=CCC4C3=O)n2)cc1OC (some centres undefined)" units_label=µg/mL result_qualifier== assay_value=38.2
molecule=Cc1ccc2nc(SCC(=O)Nc3ncccn3)[nH]c2c1 units_label=µg/mL result_qualifier=> assay_value=44.9
molecule=O=S(=O)(Nc1ccc(N2CCCCC2)cc1)c1ccc(F)cc1F units_label=µg/mL result_qualifier== assay_value=41.3
molecule=CN1c2ccccc2C(=O)C(=C2SCCCS2)S1(=O)=O units_label=µg/mL result_qualifier== assay_value=27
molecule=COC(=O)c1[nH]c2ccccc2c1CN1CCOCC1 units_label=µg/mL result_qualifier=> assay_value=41.1
molecule=COc1ccc(NC(=O)c2ccco2)cc1NC(=O)c1cccc(F)c1 units_label=µg/mL result_qualifier=< assay_value=0.4
molecule=O/N=C\c1ccc2noc(-c3ccc(Cl)cc3)c2c1 units_label=µg/mL result_qualifier=< assay_value=0.3
molecule=O=C(NCc1ccco1)Nc1ccc(OC(F)(F)F)cc1 units_label=µg/mL result_qualifier== assay_value=11.1
molecule=CN(C)c1ccc(/C=C/c2nc3ccccc3c(=O)[nH]2)cc1 units_label=µg/mL result_qualifier== assay_value=0.6
molecule=Cc1ccc(C(C)C)cc1S(=O)(=O)NCc1ccccn1 units_label=µg/mL result_qualifier=> assay_value=45.7
molecule=CC1=NCCN1CCNC(=O)Nc1ccc(F)cc1 units_label=µg/mL result_qualifier=> assay_value=39.6
molecule=O=S(=O)(c1ccc(Cl)s1)N1CCCCC1 units_label=µg/mL result_qualifier== assay_value=22
molecule="Cc1cc(=O)oc2cc(OCC(=O)NCC3CCC(C(=O)O)CC3)ccc12 (centres undefined)" units_label=µg/mL result_qualifier=> assay_value=56
molecule=O=C(NCCc1c[nH]c2ccccc12)c1ccc(Cl)cc1 units_label=µg/mL result_qualifier== assay_value=5.2
molecule=COc1ccccc1Oc1ncnc2sccc12 units_label=µg/mL result_qualifier=> assay_value=38.7
molecule=CC(C)(C)c1csc(NC(=O)c2cccnc2)n1 units_label=µg/mL result_qualifier== assay_value=10

###

Overview of reported solubility kinetic across a group of molecules:
conditions: buffer; pH 7.4; 200.0 µM
readout kind: solubility kinetic (µg/mL)

molecule=COc1cc(/C=C(/C#N)C(=O)NCCCc2ccccc2)ccc1OCC(=O)O result_qualifier== assay_value=37.9
molecule="O=C(NCCc1ccccc1)C1COc2ccccc2O1 (configuration not stated)" result_qualifier=> assay_value=42.5
molecule=NCCc1c(C(=O)O)[nH]c2ccc([N+](=O)[O-])cc12 result_qualifier== assay_value=35.4
molecule=O=c1[nH]c(SCCOc2ccccc2F)nc2ccccc12 result_qualifier== assay_value=0.9
molecule=CCCc1cc(C(=O)OC)c(NC(=O)CCCC(=O)O)s1 result_qualifier=> assay_value=47
molecule=COc1ccc(C(=O)Nc2cc([N+](=O)[O-])ccc2N2CCCC2)cc1 result_qualifier== assay_value=2.6
molecule=CCCN1CCN(c2ccc(S(N)(=O)=O)cc2[N+](=O)[O-])CC1 result_qualifier== assay_value=32.9
molecule=O=C(NN1CCOCC1)c1ccccc1Br result_qualifier=> assay_value=42.8
molecule=CCOC(=O)CNC(=O)c1ccc(SCC)cc1 result_qualifier=> assay_value=40.1
molecule="COc1ccc(NC(=O)C2CCOC2=O)cc1 (configuration not stated)" result_qualifier=> assay_value=35.3
molecule=Cc1cc2c(sc3ccccc32)c(C)n1.Cl result_qualifier== assay_value=3.7
molecule=COc1ccc(Cc2n[nH]c(=S)n2N)cc1OC result_qualifier=> assay_value=39.9

###

conditions: buffer; pH 7.4; 200.0 µM
readout kind: solubility kinetic

molecule=CCOc1ncccc1C(=O)Nc1ncc(C)s1 assay_value="15.5 µg/mL"
molecule=Cc1c(NS(=O)(=O)c2cccc(C(=O)N3CCC(C)CC3)c2)c(=O)n(-c2ccccc2)n1C assay_value="> 70.3 µg/mL"
molecule=Nc1nc(NCc2ccco2)nc(NCCO)c1[N+](=O)[O-] assay_value="> 44.1 µg/mL"
molecule="CCCC(=O)Nc1cc2c3c(c1)C(C)C(=O)N3CCC2 (configuration not stated)" assay_value="38 µg/mL"
molecule="Cc1cccc(N2C(=O)C3CCCN3C2=S)c1C (configuration not stated)" assay_value="38.4 µg/mL"
molecule=N#Cc1ccc(OCC(=O)OCC(=O)NC2CC2)cc1 assay_value="> 41.1 µg/mL"
molecule=Cn1ccnc1SCC(=O)Nc1ccc(SC(F)F)cc1 assay_value="> 49.4 µg/mL"
molecule=O=C(O)CNc1ccccc1C(=O)O assay_value="> 29.3 µg/mL"
molecule=Cc1ccc(CNC(=O)CNC(=O)c2ccc(C(C)(C)C)cc2)n1C assay_value="> 51.2 µg/mL"
molecule=COc1ccc(CNC(=O)CN(c2ccccc2OC)S(=O)(=O)c2cccs2)cc1 assay_value="10.7 µg/mL"
molecule=c1ccc(NC2=Nc3cccc4cccc2c34)cc1 assay_value="0.6 µg/mL"
molecule=C=CCNC(=S)N1CCC(C(=O)c2ccc(Cl)cc2)CC1 assay_value="43.5 µg/mL"

###

conditions: buffer; pH 7.4; 200.0 µM
Overview of reported solubility kinetic across a group of compounds:
readout kind: solubility kinetic

compound=Cc1ccc(S(=O)(=O)Nc2cccc(Cl)c2)cc1NC(=O)C1CC1 assay_value="> 54.7 µg/mL"
compound=Cc1nc(N)c(Br)c(C)c1Br assay_value="6.2 µg/mL"
compound="CSCCC(NC(=O)COc1ccccc1)C(=O)O (configuration not stated)" assay_value="31.7 µg/mL"
compound=COc1ccccc1C(=O)Nc1onc(C)c1C#N assay_value="> 38.6 µg/mL"
compound=Cc1cccnc1NC(=O)CCn1c(=O)oc2ccccc21 assay_value="> 44.6 µg/mL"
compound="CC(NC(=O)Nc1cccc(F)c1)c1ccc2c(c1)OCO2 (configuration not stated)" assay_value="2.1 µg/mL"
compound="O=C(O)CCN1CCc2ccccc2C1c1ccncc1 (configuration not stated)" assay_value="> 42.4 µg/mL"

###

Overview of reported solubility kinetic across a group of compounds:
conditions: buffer; pH 7.4; 200.0 µM
readout kind: solubility kinetic

compound=Clc1ccc(SCCCN2CCCCC2)cc1.O=C(O)C(=O)O assay_value="> 54 µg/mL"
compound="COc1ccccc1N1C(=O)c2ccccc2NC1c1ccc(O)cc1 (stereo unspecified)" assay_value="12.8 µg/mL"
compound=COC(=O)c1sccc1S(=O)(=O)Nc1ccc(Cl)cc1 assay_value="13 µg/mL"
compound=Cc1cc(-n2c(C)cc(C(=O)CSc3ccccn3)c2C)no1 assay_value="33.4 µg/mL"
compound="CC1CCCCN1C(=O)Cn1cnc2cc([N+](=O)[O-])ccc2c1=O (stereo unspecified)" assay_value="> 49.6 µg/mL"
compound=O=C(COC(=O)/C=C/c1ccc(C(F)(F)F)cc1)NCCC1=CCCCC1 assay_value="4.3 µg/mL"

###

settings: buffer; pH 7.4; 200.0 µM
Label rule met for high-side solubility kinetic (at or above 10 µg/mL) and rule not met for low-side solubility kinetic (below it).

compound=COc1ccc(-n2cc(-c3ccccc3)[nH]c2=S)c(OC)c1 group="rule not met"
compound=C=CCN(Cc1ccc(OC)c(OC)c1)C(=O)N1CCOCC1 group="rule met"
compound=COC(=O)c1ccc(CN2CCc3ccccc32)cc1 group="rule not met"
compound=CCc1noc(C)c1C(=O)Nc1nc(-c2ccc(F)cc2)c(C)s1 group="rule not met"
compound=CCOC(=O)N1CCN(C(=O)COC(=O)c2cc(Cl)cc(Cl)c2)CC1 group="rule met"
compound=CCn1c(=O)c2c(nc3n2CCCN3c2cccc(C)c2)n(C)c1=O group="rule met"
compound=COc1ccc(S(=O)(=O)N2CCCC2)cc1OC group="rule met"
compound="Cc1cccc(-c2nc(C#N)c(NCC3CCCO3)o2)c1 (centres undefined)" group="rule not met"
compound=Cc1cccc(C(=O)Nc2ccc(Oc3cnccn3)cc2)c1 group="rule not met"
compound=COc1cccc(NC(=O)Cc2ccc3ccccc3c2)c1 group="rule not met"
compound=O/C(=C\c1nc2ccccc2[nH]1)c1cccs1 group="rule met"
compound=O=C(COC(=O)c1nsc(Cl)c1Cl)NC1CCCC1 group="rule met"
compound=O=C(O)c1sccc1NC(=O)c1c(Cl)cccc1Cl group="rule met"
compound=COC(=O)Nc1ccc(S(=O)(=O)Nc2ncccn2)cc1 group="rule met"
compound=COc1ccc(Nc2c3c(nc4ccc(C)cc24)CCC3)cc1.Cl group="rule met"
compound=CCC(=O)Nc1c(-c2ccc(C)cc2)c(=O)c2ccccc2n1C group="rule met"
compound=COc1ccc(Cl)cc1NC(=O)CN(C)C(=O)/C=C/c1ccco1 group="rule met"
compound=CCOc1cc(C(=O)Nc2cccnc2)cc(OCC)c1OCC group="rule met"
compound=O=C(Nc1ccccc1NC(=O)c1ccco1)c1ccccc1 group="rule met"
compound=C/C(=N/O)c1cccc(N2Cc3ccccc3C2)c1 group="rule met"
compound="COc1ccc(OCC(O)CN2CCNCC2)cc1.Cl (centres undefined)" group="rule met"
compound=COc1cccc(NC(=O)c2cnc(SC)nc2C)c1 group="rule met"
compound=Fc1ccc(OCCCn2ccnc2)cc1 group="rule met"
compound=COc1cc(C(=O)Nc2cccc(NC(=O)c3cccs3)c2)cc(OC)c1OC group="rule met"
compound=O=C(Nc1cccc(Cl)c1)C1=CC=CN2CCS(=O)(=O)N=C12 group="rule not met"
compound=Cc1csc(/N=C/N(C)C)c1C#N group="rule met"
compound=Cc1nn(C)cc1C(=O)Nc1ccc2c(c1)OCCO2 group="rule met"
compound=Cc1ccc(C)c(Nc2nc(-c3ccncc3)nc3ccccc23)c1 group="rule not met"
compound=CCCCNC(=O)c1ccccc1SCc1c(C)noc1C group="rule met"
compound="CCSC1=C(C#N)C(CC(C)C)C2=C(CCCC2=O)N1 (centres undefined)" group="rule met"
compound=COc1cccc(CNC(=O)c2ccc(C3SCCS3)cc2)c1 group="rule met"
compound=C=C(C)CSc1nc2sc3c(c2c(=O)n1-c1ccc(C)cc1)CCN(C)C3 group="rule met"
compound=CCOC(=O)c1cc2c(cn1)[nH]c1ccccc12 group="rule not met"
compound=COc1ccccc1CNC(=O)COC(=O)c1ccc(C(=O)c2ccccc2)cc1 group="rule not met"
compound="CN(C(=O)COC(=O)c1ccc(Cl)c(S(=O)(=O)N2CCCCCC2)c1)C1CCS(=O)(=O)C1 (centres undefined)" group="rule met"
compound=CC(=O)N1CCc2ccc(S(=O)(=O)Nc3ccccc3Cl)cc21 group="rule met"
compound=CC(C)CN(Cc1cc(=O)oc2cc3c(cc12)CCCC3)CC(C)C group="rule not met"
compound="CCCCC1(C)NC(=O)N(CC(=O)N2CCc3ccccc32)C1=O (centres undefined)" group="rule met"
compound="CCCNC(=S)N1CCCC(c2nc3ccccc3[nH]2)C1 (centres undefined)" group="rule met"
compound=O=C(CSc1cccc[n+]1[O-])c1ccc(Cl)s1 group="rule met"
compound=CCOc1ccccc1OCC(=O)Nc1cc(C)on1 group="rule met"
compound=COc1ccc(CN2CCCN(C)CC2)c(OC)c1C group="rule met"
compound="COCC(C)Nc1ccc(S(=O)(=O)N2CCCC2)cc1[N+](=O)[O-] (centres undefined)" group="rule met"
compound=COc1ccc(NC(=O)Nc2cccc(Cl)c2Cl)c(OC)n1 group="rule not met"
compound=Cc1ccc(-c2noc(N=O)c2NO)cc1 group="rule met"
compound=N#Cc1cccnc1N1CCN(C(=O)c2ccco2)CC1 group="rule met"
compound=COc1ccc(CCNC(=O)COC(=O)C2CC2)cc1 group="rule met"
compound=O=[N+]([O-])c1cccnc1N1CCCNCC1 group="rule met"
compound=CCOc1ccccc1NC(=O)NC(=O)N(C)S(C)(=O)=O group="rule met"
